Test system: Schistosoma mansoni
Assay overview: WHO-TDR: Schistosomiasis
Type: functional
Set-up: concentration or dose not given beside the values
The compounds listed here are annotated with their % Inhibition.
Give the value, in units of %, as a plain number.

Recorded results for 2 compounds are shown here.
- Compound: "CCSc1ccccc1C(=O)Nc1nnc(Cc2cccs2)o1"
  Output unit: "%"
  % Inhibition: 33.3
- Compound: "CCOC(=O)c1sc(-c2ccccc2)cc1NC(=O)c1ccnn1C"
  Output unit: "%"
  % Inhibition: 0

Q. What value of % Inhibition has been reported for the following compound? `COC(=O)c1ccc(COc2cccc3c2CCN(Cc2ccc(Cl)cc2)C3=O)o1`
A. 0

Q. Here is the next compound: `COc1ccc(C)c2sc(N(CCCN(C)C)C(=O)c3ccccc3SC)nc12`
A. 0

Q. Okay, and `CCSc1nnc2ccc(-c3ccc(CC)cc3)nn12` ?
A. 0

Q. Next record, please: C/C=C/Cn1c(=O)c2c(nc3n(C(C)c4ccccc4)c(C)cn23)n(C)c1=O (stereo unspecified)
A. 0

Q. One more compound: `O=C(c1ccc(C(F)(F)F)cc1)N1CCN(c2ccc(Nc3cccnc3)nn2)CC1`
A. 0

Q. Request: `Cc1ccc(-c2cc(CC(=O)Nc3cccc(C)n3)no2)cc1`
A. 0

Q. Now this one: `O=C(Cc1csc(SCC(=O)c2ccccc2)n1)NCCC1=CCCCC1`
A. 33.3

Q. Next: `Cc1cccc(NC(=O)Cn2nc(C(C)C)c3cnn(-c4ccccc4C)c3c2=O)c1`
A. 0

Q. Now try `CC(C)(C)c1ccc(C(=O)Nc2sccc2C(N)=O)cc1` .
A. 0
